- EXPERIMENT_SUMMARY: cell viability in Huh7 cells, primary screen, cytotoxicity control for HCV replication inhibitor project, CellTiter-Glo luminescence, basal, 48 h (AID 1143);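 note: Huh7 hepatoma cells carrying a hepatitis C replication reporter with no stimulus; test concentration not given here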
- CONDITION_NOTES: Huh7 HCV replicon, higher = more signal, called active from +8 up or from −8 down
Provide the recorded z-score for the entries that follow.
Numbers only.

The following compounds have reported results that may help.
INSERT INTO results (substance_smiles, recorded_endpoint, measured_value) VALUES
  ('C#CCCCON=C1C[C@@H](O)[C@@H](O)[C@@H]2[C@@H]3C(=O)N(Cc4ccccc4)C(=O)[C@@H]3CC[C@H]12', 'z-score', -3.22),
  ('COC(=O)CC=C[C@@H](C)[C@@H](C=NO[C@@H](C)c1cc(-c2c(C)cc(C)cc2C)no1)OC', 'z-score', -2.12),
  ('CC(C)(C)N1C(=O)[C@H]2[C@H]3[C@H](O)[C@H](O)CC(=NOCc4ccccc4)[C@@H]3CC[C@H]2C1=O', 'z-score', -0.939),
  ('COc1ccc(COC(=O)NN=C2C[C@@H](O)[C@@H](O)[C@@H]3[C@@H]4C(=O)N(c5ccc(F)cc5F)C(=O)[C@@H]4CC[C@@H]23)cc1', 'z-score', 0.0335),
  ('O=C1[C@H]2[C@H]3[C@H](O)[C@H](O)CC(=NO[C@@H]4O[C@H](CO)[C@@H](O)[C@H](O)[C@H]4O)[C@H]3CC[C@H]2C(=O)N1Cc1ccc2c(c1)OCO2', 'z-score', -0.402);

"CO[C@@H]1COC(=O)[C@@H]2CCCN2C(=O)[C@@H](C)COC(=O)[C@H](COCc2ccccc2)NC(=O)CC=C[C@H]1C" has a reported z-score of -0.388

====

- EXPERIMENT_SUMMARY: PSAC antagonists in infected red cells, primary screen, cell-based, P. falciparum Indochina, OD700, 18 h (AID 1157)
- CONDITION_NOTES: P. falciparum Indochina infected erythrocytes, osmotic lysis OD700, 18 h; higher = more signal, called active from +8 up or from −8 down
Activity calls are given as the source filed them.
RECORDED_ENDPOINT: z-score

Sample answers from the record:
INSERT INTO results (molecule, recorded_endpoint, measured_value) VALUES
  ('CC(C)NC(=O)[C@@H]1c2ccccc2C(=O)N(CC23CC4CC(CC(C4)C2)C3)[C@H]1c1ccc(CO)cc1', 'z-score', '-0.853 (inactive)'),
  ('Cn1c(=O)n2n(c1=O)[C@H]1[C@H](O)[C@@H]3O[C@@H]3C(=NOC[C@@H](O)COCc3ccco3)[C@H]1CC2', 'z-score', '0.08 (inactive)'),
  ('COC(=O)[C@@H]1CC[C@H](C)[C@@H](c2ccc(C)cc2)N1C(=O)c1ccc(C=NOC[C@@H](O)COCc2ccco2)cc1', 'z-score', '1.05 (inactive)');

Provide the reported z-score of each entry below, same order.
1. O=C1[C@H]2[C@H]3[C@H](O)[C@H](O)CC(=NO[C@@H]4O[C@H](CO)[C@@H](O)[C@H](O)[C@H]4O)[C@H]3CC[C@H]2C(=O)N1Cc1ccccc1
2. CCOC(=O)[C@H](Cc1ccccc1)NC(=O)CCC1CC(OC(=O)NCCc2ccc(F)cc2)CC2(CCCC(COC(=O)NCC(c3ccccc3)c3ccccc3)O2)O1 (stereo not given in full)

Out:
1. -0.801 (inactive)
2. 0.688 (inactive)

====

- EXPERIMENT_SUMMARY: adipocyte viability effects, profiling panel, cell-based, 3T3-L1 adipocytes, calcein-AM fluorescence, 48 h, basal (AID 1163); note: test concentration not given here
- CONDITION_NOTES: 3T3-L1 adipocytes viability, higher = more signal
Labelling field: enter MET if recorded z-score is less than -0.03. Enter NOT MET if it equals or exceeds that cut-off.

In: Threshold test, z-score < -0.03: O=C1CCCC2OC12C(O)CCc1ccccc1 (centres undefined)
Out: MET

In: State whether -0.03 exceeds z-score recorded for "CCN1C(=O)[C@H]2[C@H]3[C@H](O)C=CC(=O)[C@@H]3CC[C@H]2C1=O" .
Out: NOT MET

In: Determine if CCCCCN1CC=CC23O[C@@H]4C=CCOC(=O)[C@@H]4[C@H]2C(=O)N(C(CO)C(C)C)[C@@H]3C1=O (some centres undefined) shows z-score strictly lower than -0.03.
Out: MET

In: Say whether its z-score is strictly beneath -0.03. Entry: "CC(C)(C)OC(=O)CC[C@]1(C(N)=O)COC(c2ccc(OCCCO)cc2)=N1"
Out: NOT MET

In: API: query returns whether the compound falls strictly under -0.03 in z-score. Query: CCOC(=O)C1=CCC(c2cc3ccccc3[nH]2)NC1 (centres undefined)
Out: MET

====

- EXPERIMENT_SUMMARY: S. cerevisiae RM11-1a growth modifiers, primary screen, strain RM11-1a, OD600, basal, 24 h (AID 1177);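 note: cultures grown under basal conditions with no added stressor; test concentration not given here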
- CONDITION_NOTES: OD600, 24 h, higher = more signal, called active from +8 up or from −8 down
Active and inactive are the calls of the source.
RECORDED_ENDPOINT: z-score

For every item in the list below, what is its measured z-score?
1. CCc1cc2c(nc1CC)CCN(CCC(C)=NOC[C@@H](O)[C@H]1O[C@@H]3OC(C)(C)O[C@@H]3[C@H]1O)C2
2. COc1ccc(O[C@H]2C=C[C@@H](c3ccccc3)O[C@@H]2COC(=O)CCC(C)=NO[C@@H](C)c2cc(-c3c(C)cc(C)cc3C)no2)cc1
3. O=C1O[C@@H](c2ccccc2)[C@@H](c2ccccc2)N2[C@@H](c3ccccc3OCCO)[C@]3(C(=O)Nc4ccc(C#CCCO)cc43)[C@@H](C(=O)O)[C@H]12
4. CCOC(=O)C[C@H]1[C@H](OC(=O)c2cc3ccccc3oc2=O)[C@@H](NC(=O)c2ccc3ccccc3n2)c2cc(OCCCO)ccc2N1C(=O)c1ccccc1
5. O=C(NN=C1C[C@@H](O)[C@@H](O)[C@@H]2[C@@H]3C(=O)N(c4ccc(F)cc4F)C(=O)[C@@H]3CC[C@@H]12)OCc1ccccc1

Out:
["-0.752 (inactive)", "0.108 (inactive)", "-0.282 (inactive)", "-0.0333 (inactive)", "1.01 (inactive)"]

====

- TARGET_OR_TEST_SYSTEM: Torsin-1A (Homo sapiens) (UniProt O14656)
- Sequence (O14656 whole entry, looked up): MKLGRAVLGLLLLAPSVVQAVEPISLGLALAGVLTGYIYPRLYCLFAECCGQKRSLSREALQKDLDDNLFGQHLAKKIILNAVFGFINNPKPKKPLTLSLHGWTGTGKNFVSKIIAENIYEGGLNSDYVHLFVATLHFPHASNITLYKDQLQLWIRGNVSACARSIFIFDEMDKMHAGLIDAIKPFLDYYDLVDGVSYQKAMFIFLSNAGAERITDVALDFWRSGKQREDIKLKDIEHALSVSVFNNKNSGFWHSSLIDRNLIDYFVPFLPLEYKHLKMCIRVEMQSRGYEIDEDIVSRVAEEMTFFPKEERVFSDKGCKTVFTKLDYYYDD
- EXPERIMENT_SUMMARY: small-molecule binders of mutant TOR1A in lysate, primary screen, cell lysate, small-molecule microarray, COS7 lysate, 635/667 nm fluorescence (AID 1150);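 note: score pools 667 nm emission and signal to noise measuring lysate protein binding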
- CONDITION_NOTES: COS7 hTOR1A mutant lysate, 635 nm fluorescence, higher = more signal
Provide the recorded composite z-score for the entries that follow.
Answers are plain numbers.

Batch request: composite z-score per item, same order as input.
1. C#C[C@@H](CC)O[Si](C#Cc1ccc(Oc2ccccc2)cc1)(C(C)C)C(C)C
2. O=C1CCCC2OC12C(O)CCc1ccccc1 (centres undefined)
3. CO[C@@H]1COC(=O)CC=C[C@@H](C)COC(=O)[C@H](COCc2ccccc2)NC(=O)CC=C[C@H]1C
4. CN(C)c1ccc(C(O)C2C=CC3C(=O)N(c4ccccc4)C(=O)C3N2Nc2ccccc2F)cc1 (centres undefined)
5. CC(C)CN1CCc2nc(-c3ccccc3)c3c(c2CC1)CO[C@@H](C)C3
6. CC(C)CON=C1C[C@@H](O)[C@@H](O)[C@@H]2[C@@H]3C(=O)N(C[C@@H]4CCCO4)C(=O)[C@@H]3CC[C@H]12
7. Cc1cc2c(nc1C)CCCN2CC(C)ON=C1[C@H]2CCn3c(=O)n(-c4ccccc4)c(=O)n3[C@H]2[C@H](O)[C@@H]2O[C@H]12 (some centres undefined)

Out:
0.321
-0.0582
2.51
0.15
0.954
1.49
0.246

====

- EXPERIMENT_SUMMARY: CREB reporter modulators without forskolin, primary screen, cell-based, PC12, CRE-LacZ reporter, unstimulated (AID 1145)
- CONDITION_NOTES: no forskolin, luminescence, 4.5 h, higher = more signal, called active from +8 up or from −8 down
Provide the reported z-score of each item.
Answers are plain numbers.

Take a look at these entries with their results.
INSERT INTO results (compound, recorded_endpoint, measured_value) VALUES
  ('O[C@@H](Cc1ccccc1)[C@H]1C2C=CCCC(c3ccccc3)=C2CN1Cc1cccc(Cl)c1 (stereo not given in full)', 'z-score', 2.58),
  ('COCCCNC(=O)[C@]1(Cc2ccccc2)N=C(c2ccc(OCCCO)cc2)O[C@@H]1c1ccccc1', 'z-score', 0.423),
  ('O=C1[C@H]2[C@H]3[C@H](O)[C@H](O)CC(=NOCc4ccccc4)[C@H]3CC[C@H]2C(=O)N1c1ccc(F)cc1F', 'z-score', -0.926),
  ('COCCCNC(=O)[C@@]1(CCS(=O)(=O)c2ccccc2)N=C(c2ccc(OCCCO)cc2)O[C@H]1c1ccccc1', 'z-score', 0.951),
  ('C=CCOC(=O)[C@H]1[C@@H]2C(=O)O[C@@H](c3ccccc3)[C@@H](c3ccccc3)N2[C@@H](c2ccc(OCCOC(=O)[C@H]3C[C@H]4C(=O)N5CCC[C@H]5C(=O)N4[C@H]3c3cccc(OCCO)c3)cc2)[C@]12C(=O)Nc1ccc(I)cc12', 'z-score', -0.134),
  ('COc1ccc([Si](C)(C)[C@H]2[C@H](CC(=O)N3CCC[C@H]3CO)O[C@@]3(C(=O)N(Cc4cccc(N5C(=O)COc6ccccc65)c4)c4ccccc43)[C@@H]2C)cc1', 'z-score', 7.18),
  ('CC(C)(C)N1C(=O)[C@H]2[C@H]3[C@H](O)[C@H](O)CC(=NOCc4ccccc4)[C@@H]3CC[C@H]2C1=O', 'z-score', 0.16),
  ('COC(=O)C1=C(C)N(Cc2ccccc2)[C@]23O[C@](C(=O)OC)(C(=O)N2[C@@H]1c1ccccc1)[C@H]1CCOC(=O)[C@H]13', 'z-score', 0.286),
  ('C[C@@H]1C=CCC(=O)OC[C@H](C)C(=O)OC[C@H]2O[C@H]1C=C[C@H]2O', 'z-score', -0.2),
  ('CCOC(=O)[C@H](CC(C)C)NC(=O)CCC1CC(OC(=O)NCCc2ccc(F)cc2)CC2(CCCC(COC(=O)NCc3ccccc3)O2)O1 (stereo not given in full)', 'z-score', 0.199);

Return reported z-score values for all items listed beneath this line.
1. COC(=O)[C@@]1(Cc2ccc(F)cc2)[C@H]2c3cc(C(=O)N(C)C)n(Cc4ccc(OC)c(OC)c4)c3C[C@H]2CN1C(=O)c1ccccc1
2. CCCNC(=O)[C@@H]1c2ccccc2C(=O)N(c2ccc(C)cn2)[C@H]1c1ccc(CO)cc1
3. C=C(COC)/C(=C/C[C@H](OC(=O)c1ccncc1)c1ccc(CO)o1)c1cc(C(=O)OC)ccc1OC
4. CCN1C(=O)[C@H]2[C@H]3[C@H](O)[C@H](O)CC(=NOCc4ccccc4)[C@H]3CC[C@H]2C1=O

Out:
1: 0.194; 2: -0.412; 3: 0.0422; 4: 0.25

z-score in this record for "COC(=O)CC=C[C@@H](C)[C@@H](C=NO[C@@H](C)c1cc(-c2c(C)cc(C)cc2C)no1)OC" : 2.71
